system: cotton-pellet-induced granuloma; experiment: cotton pellet granuloma bioassay, topical anti-inflammatory activity (inhibitory effect on granuloma weight); assay type: in vivo, Male Wistar rats; conditions: thymus inhibition ED50 / cotton pellet ED50; 10080 min
Below is a list of entries, each paired with its recorded Therapeutic index systemic ED50 / topical ED50 value.
OUTCOME MEASURE: Therapeutic index systemic ED50 / topical ED50

| COMPOUND | MEASURED VALUE |
| --- | --- |
| CC1(C)O[C@@H]2C[C@H]3[C@@H]4C[C@H](F)C5=CC(=O)C=C[C@]5(C)[C@H]4[C@@H](O)C[C@]3(C)[C@]2(C(=O)CO)O1 [FLUNISOLIDE, flunisolide, reference compound] | 0.44 |
| CCCCC1OC2CC3C4CCC5=CC(=O)C=CC5(C)C4C(O)CC3(C)C2(C(=O)COC(C)=O)O1 (stereo not drawn) [Compound 10] | 9.7 |
| CC(C)C(=O)OCC(=O)C12OC(C3CCCCC3)OC1CC1C3CC(F)C4=CC(=O)C=CC4(C)C3(F)C(O)CC12C (stereo not drawn) [Compound 15] | 10.8 |

###

test system: cotton-pellet-induced granuloma; assay: cotton pellet granuloma bioassay, topical anti-inflammatory activity (inhibitory effect on granuloma weight); type: in vivo, Male Wistar rats; conditions: thymus inhibition ED50 / cotton pellet ED50; 10080 min
OUTCOME MEASURE: Therapeutic index systemic ED50 / topical ED50

| COMPOUND | TARGET | MEASURED VALUE |
| --- | --- | --- |
| CC(C)C(=O)OCC(=O)C12OC(C3CCCCC3)OC1CC1C3CCC4=CC(=O)C=CC4(C)C3C(O)CC12C (stereo not drawn) [Compound 9] | cotton-pellet-induced granuloma | 26.2 |
| CC(C)C(=O)OCC(=O)C12OC(C3CCCCC3)OC1CC1C3CC(F)C4=CC(=O)C=CC4(C)C3(F)C(O)CC12C (stereo not drawn) [Compound 13] | cotton-pellet-induced granuloma | 12 |
| CC1(C)O[C@@H]2C[C@H]3[C@@H]4CCC5=CC(=O)C=C[C@]5(C)[C@@]4(F)[C@@H](O)C[C@]3(C)[C@]2(C(=O)CO)O1 (stereo in doubt) [TRIAMCINOLONE ACETONIDE, triamcinolone acetonide, reference compound] | cotton-pellet-induced granuloma | 0.7 |
| CC(C)C(=O)OCC(=O)C12OC(C3CCCCC3)OC1CC1C3CCC4=CC(=O)C=CC4(C)C3C(O)CC12C (stereo not drawn) [Compound 8] | cotton-pellet-induced granuloma | 29.6 |
| CC(C)C(=O)OCC(=O)C12OC(C3CCCCC3)OC1CC1C3CCC4=CC(=O)C=CC4(C)C3C(O)CC12C (stereo not drawn) [Compound 7] | cotton-pellet-induced granuloma | 28.3 |
| CCCCC1OC2CC3C4CCC5=CC(=O)C=CC5(C)C4C(O)CC3(C)C2(C(=O)COC(C)=O)O1 (stereo not drawn) [Compound 12] | cotton-pellet-induced granuloma | 7.9 |
| CCCC1O[C@@H]2C[C@H]3[C@@H]4CCC5=CC(=O)C=C[C@]5(C)[C@H]4[C@@H](O)C[C@]3(C)[C@]2(C(=O)CO)O1 (stereo partly drawn) [BUDESONIDE, reference compound] | cotton-pellet-induced granuloma | 1.09 |
| CCCCC1OC2CC3C4CCC5=CC(=O)C=CC5(C)C4C(O)CC3(C)C2(C(=O)COC(C)=O)O1 (stereo not drawn) [Compound 11] | cotton-pellet-induced granuloma | 12.9 |
| CC(C)C(=O)OCC(=O)C12OC(C3CCCCC3)OC1CC1C3CC(F)C4=CC(=O)C=CC4(C)C3(F)C(O)CC12C (stereo not drawn) [Compound 14] | cotton-pellet-induced granuloma | 13.6 |

###

system: thymus; set-up: species or system Male Wistar rats; conditions: rat, in vivo, 10080 min
Below is a list of entries, each paired with its recorded Systemic glucocorticoid activity (Thymus inhibition), ED50 value.
OUTCOME MEASURE: Systemic glucocorticoid activity (Thymus inhibition), ED50 (μg/pellet)

| COMPOUND | OUTPUT UNIT | MEASURED VALUE |
| --- | --- | --- |
| CC(C)C(=O)OCC(=O)C12OC(C3CCCCC3)OC1CC1C3CC(F)C4=CC(=O)C=CC4(C)C3(F)C(O)CC12C (stereo not drawn) [Compound 15] | μg/pellet | 56.3 |
| CCCCC1OC2CC3C4CCC5=CC(=O)C=CC5(C)C4C(O)CC3(C)C2(C(=O)COC(C)=O)O1 (stereo not drawn) [Compound 10] | μg/pellet | 583.2 |
| CC(C)C(=O)OCC(=O)C12OC(C3CCCCC3)OC1CC1C3CC(F)C4=CC(=O)C=CC4(C)C3(F)C(O)CC12C (stereo not drawn) [Compound 14] | μg/pellet | 49 |
| CC(C)C(=O)OCC(=O)C12OC(C3CCCCC3)OC1CC1C3CCC4=CC(=O)C=CC4(C)C3C(O)CC12C (stereo not drawn) [Compound 8] | μg/pellet | 608 |
| CCCCC1OC2CC3C4CCC5=CC(=O)C=CC5(C)C4C(O)CC3(C)C2(C(=O)COC(C)=O)O1 (stereo not drawn) [Compound 12] | μg/pellet | 592.2 |
| CC1(C)O[C@@H]2C[C@H]3[C@@H]4C[C@H](F)C5=CC(=O)C=C[C@]5(C)[C@H]4[C@@H](O)C[C@]3(C)[C@]2(C(=O)CO)O1 [FLUNISOLIDE, flunisolide, reference compound] | μg/pellet | 156 |

###

test system: thymus; set-up: species or system Male Wistar rats; conditions: rat, in vivo, 10080 min
OUTCOME MEASURE: Systemic glucocorticoid activity (Thymus inhibition), ED50

| COMPOUND | MEASURED VALUE |
| --- | --- |
| CC(C)C(=O)OCC(=O)C12OC(C3CCCCC3)OC1CC1C3CCC4=CC(=O)C=CC4(C)C3C(O)CC12C (stereo not drawn) [Compound 7] | 614.7 μg/pellet |
| CC(C)C(=O)OCC(=O)C12OC(C3CCCCC3)OC1CC1C3CC(F)C4=CC(=O)C=CC4(C)C3(F)C(O)CC12C (stereo not drawn) [Compound 13] | 54 μg/pellet |
| CCCCC1OC2CC3C4CCC5=CC(=O)C=CC5(C)C4C(O)CC3(C)C2(C(=O)COC(C)=O)O1 (stereo not drawn) [Compound 11] | 555.3 μg/pellet |
| CC1(C)O[C@@H]2C[C@H]3[C@@H]4CCC5=CC(=O)C=C[C@]5(C)[C@@]4(F)[C@@H](O)C[C@]3(C)[C@]2(C(=O)CO)O1 (stereo in doubt) [TRIAMCINOLONE ACETONIDE, triamcinolone acetonide, reference compound] | 156.4 μg/pellet |
| CC(C)C(=O)OCC(=O)C12OC(C3CCCCC3)OC1CC1C3CCC4=CC(=O)C=CC4(C)C3C(O)CC12C (stereo not drawn) [Compound 9] | 667.1 μg/pellet |
| CCCC1O[C@@H]2C[C@H]3[C@@H]4CCC5=CC(=O)C=C[C@]5(C)[C@H]4[C@@H](O)C[C@]3(C)[C@]2(C(=O)CO)O1 (stereo partly drawn) [BUDESONIDE, reference compound] | 178.6 μg/pellet |
